Assay info: In vitro dissociation of the water soluble taxane derivatives in blood plasma of rabbit
Format: in vitro ADME, New Zealand white rabbits
Reported conditions: 37° C., 5 min
Reported endpoint: dissociation percent (%)
Your answer is read as %, so omit the unit and give the number.

COC1C(=O)C2(C)C(OC)CC3OCC3(OC(C)=O)C2C(OC(=O)c2ccccc2)C2(O)CC(OC(=O)C(OC(=O)C(CCN)C(F)F)C(NC(=O)OC(C)(C)C)c3ccccc3)C(C)=C1C2(C)C.O=S(=O)([O-])O.[Na+] (stereo not drawn) [Compound 10] : 38.1

Asked: Find the measured dissociation percent of CC(=O)O[C@H]1C(=O)[C@@]2(C)[C@H]([C@H](OC(=O)c3ccccc3)[C@]3(O)C[C@H](OC(=O)[C@H](OC(=O)[C@@H](F)CCN(C)C)[C@@H](NC(=O)c4ccccc4)c4ccccc4)C(C)=C1C3(C)C)[C@]1(OC(C)=O)CO[C@@H]1C[C@@H]2O.CS(=O)(=O)O [Compound C2] and report it.
Given back: 69.7

Asked: Tell me its dissociation percent given CC(=O)O[C@H]1C(=O)[C@@]2(C)[C@H]([C@H](OC(=O)c3ccccc3)[C@]3(O)C[C@H](OC(=O)[C@H](OC(=O)[C@H](F)CCN(C)C)[C@@H](NC(=O)c4ccccc4)c4ccccc4)C(C)=C1C3(C)C)[C@]1(OC(C)=O)CO[C@@H]1C[C@@H]2O.Cl [Compound 01] as the entry.
Given back: 76.5

###

Reported conditions: formula F derivatives; rabbit plasma, 37° C., sampling time 15 s
Reported endpoint: Sampling time/dissociation percent (%) 15 s
Hi! Could you send only the number? It should be in %, unit omitted.

Below, 7 molecules whose answers are already recorded.
CC(C)c1cccc(C(C)C)c1OC(=O)C(F)CCC(=O)[O-].[Na+] (racemic) : 47.5
CC(C)c1cccc(C(C)C)c1OC(=O)C(F)C(=O)[O-].[Na+] (centres unmarked) : 41.2
CC(C)c1cccc(C(C)C)c1OC(=O)C(F)CCC(=O)[O-].[K+] (centres unmarked) : 73.4
CC(C)c1cccc(C(C)C)c1OC(=O)C(F)CCCC(=O)[O-].CC(C)c1cccc(C(C)C)c1OC(=O)C(F)CCCC(=O)[O-].[Zn+2] (centres unmarked) : 34.9
CC(C)c1cccc(C(C)C)c1OC(=O)C(F)CC(=O)[O-].[Na+] (centres unmarked) : 46.3
CC(C)c1cccc(C(C)C)c1OC(=O)C(CF)CCCCCCC(=O)[O-].CC(C)c1cccc(C(C)C)c1OC(=O)C(CF)CCCCCCC(=O)[O-].CC(C)c1cccc(C(C)C)c1OC(=O)C(CF)CCCCCCC(=O)[O-].[Al+3] (racemic) : 37.1
CC(C)c1cccc(C(C)C)c1OC(=O)C(F)CCCCCC(=O)[O-].CC(C)c1cccc(C(C)C)c1OC(=O)C(F)CCCCCC(=O)[O-].[Ca+2] (racemic) : 48.3

Asked: Complete the entry with Sampling time/dissociation percent (%) 15 s for CC(C)c1cccc(C(C)C)c1OC(=O)C(CCC(=O)[O-])C(F)(F)F.[Li+] (centres unmarked)
Given back: 28.4

###

dissociation percent for assorted molecules
Assay info: In vitro dissociation of the water soluble taxane derivatives in blood plasma of rabbit
Assay type: in vitro ADME, New Zealand white rabbits
Reported conditions: 37° C., 5 min
Give your result in % as a bare value.

CC(=O)OC12COC1CC(O)C1(C)C(=O)C(O)C3=C(C)C(OC(=O)C(OC(=O)C(F)CCN(C)C)C(NC(=O)OC(C)(C)C)c4ccccc4)CC(O)(C(OC(=O)c4ccccc4)C21)C3(C)C.Cl (centres unmarked) [Compound 04] : 80.2

Asked: Give the reported value of dissociation percent for this record: CC(=O)O[C@@]12CO[C@@H]1C[C@H](O)[C@@]1(C)C(=O)[C@H](O)C3=C(C)[C@@H](OC(=O)[C@H](OC(=O)[C@@H](F)CCN(C)C)[C@@H](NC(=O)OC(C)(C)C)c4ccccc4)C[C@@](O)([C@@H](OC(=O)c4ccccc4)[C@H]21)C3(C)C.Cl [Compound 05]
Given back: 79.3

###

Assay info: In vitro dissociation of the water soluble taxane derivatives in blood plasma of rabbit
Format: in vitro ADME, New Zealand white rabbits
Reported conditions: 37° C., 60 min
Reported endpoint: dissociation percent (%)
Record the value in %, omitting the unit from your answer.

Asked: Consider the compound `CCN(CC)CC[C@](C)(C(=O)O[C@@H](C(=O)O[C@H]1C[C@@]2(O)[C@@H](OC(=O)c3ccccc3)[C@@H]3[C@]4(OC(C)=O)CO[C@@H]4C[C@H](OC)[C@@]3(C)C(=O)[C@H](OC)C(=C1C)C2(C)C)[C@@H](NC(=O)OC(C)(C)C)c1ccccc1)C(F)(F)F.CS(=O)(=O)O` and give its recorded dissociation percent.
Given back: 92.1

###

System: SD rats
Assay info: ED50 and LD50 test concerning anesthesia (sequential method) in rats
Type: in vivo
Reported conditions: caudal vein injection, 6 mg/ml solution
Reported Rat LD50 values follow for various compounds
Expressed in mg/kg, but write only the number.

CC(C)c1cccc(C(C)C)c1OC(=O)C(F)CCC(=O)[O-].[Na+] (racemic) : 42.3

Asked: Recall and state the measured Rat LD50 for CC(C)c1cccc(C(C)C)c1O [Propofol, reference compound] .
Given back: 17.4

Asked: State its Rat LD50 for this compound: CC(C)c1cccc(C(C)C)c1OC(=O)C(F)CC(=O)[O-].[Na+] (stereo not shown)
Given back: 44.4

Asked: Please report Rat LD50 for the following compound: CC(C)c1cccc(C(C)C)c1OC(=O)[C@H](F)CCN(C)C.Cl [Compound E2]
Given back: 30.7

###

Here, each record is paired with measured dissociation percent data.
Assay info: In vitro dissociation of the water soluble taxane derivatives in blood plasma of rat
Format: in vitro ADME, SD rats
Reported conditions: 37° C., 10 min
Field format: number, assumed %, no unit text.

CC(=O)OC12COC1CC(O)C1(C)C(=O)C(O)C3=C(C)C(OC(=O)C(OC(=O)C(F)CCN(C)C)C(NC(=O)OC(C)(C)C)c4ccccc4)CC(O)(C(OC(=O)c4ccccc4)C21)C3(C)C.Cl (centres unmarked) [Compound 04] : 100

# next molecule below
Asked: Fill in reported dissociation percent for this entry: CC(=O)O[C@H]1C(=O)[C@@]2(C)[C@H]([C@H](OC(=O)c3ccccc3)[C@]3(O)C[C@H](OC(=O)[C@H](OC(=O)[C@@H](F)CCN(C)C)[C@@H](NC(=O)c4ccccc4)c4ccccc4)C(C)=C1C3(C)C)[C@]1(OC(C)=O)CO[C@@H]1C[C@@H]2O.Cl [Compound 02]
Given back: 100

###

This section presents compounds with their documented Sampling time/dissociation percent (%) 30 s values.
Reported conditions: formula F derivatives; rabbit plasma, 37° C., sampling time 30 s
Your answer should be a plain number; it is taken to be in %.

Here are 6 compounds together with their reported answers.
CC(C)c1cccc(C(C)C)c1OC(=O)C(F)CCC(=O)[O-].[Na+] (racemic) : 75.5
CC(C)c1cccc(C(C)C)c1OC(=O)C(F)C(=O)[O-].[Na+] (centres unmarked) : 70.4
CC(C)c1cccc(C(C)C)c1OC(=O)C(CCC(=O)[O-])C(F)(F)F.[Li+] (centres unmarked) : 47.9
CC(C)c1cccc(C(C)C)c1OC(=O)C(F)CCCCCC(=O)[O-].CC(C)c1cccc(C(C)C)c1OC(=O)C(F)CCCCCC(=O)[O-].[Ca+2] (racemic) : 61.7
CC(C)c1cccc(C(C)C)c1OC(=O)C(F)CCC(=O)[O-].[K+] (centres unmarked) : 94.8
CC(C)c1cccc(C(C)C)c1OC(=O)C(F)CC(=O)[O-].[Na+] (centres unmarked) : 72.8

Asked: Note down Sampling time/dissociation percent (%) 30 s recorded for CC(C)c1cccc(C(C)C)c1OC(=O)C(F)CCCC(=O)[O-].CC(C)c1cccc(C(C)C)c1OC(=O)C(F)CCCC(=O)[O-].[Zn+2] (centres unmarked)
Given back: 58.8

Asked: Check the records and state Sampling time/dissociation percent (%) 30 s for CC(C)c1cccc(C(C)C)c1OC(=O)C(CF)CCCCCCC(=O)[O-].CC(C)c1cccc(C(C)C)c1OC(=O)C(CF)CCCCCCC(=O)[O-].CC(C)c1cccc(C(C)C)c1OC(=O)C(CF)CCCCCCC(=O)[O-].[Al+3] (racemic)
Given back: 58.3

###

Assay info: In vitro dissociation of the water soluble taxane derivatives in blood plasma of rat
Assay type: in vitro ADME, SD rats
Reported conditions: 37° C., 2 min
Reported endpoint: dissociation percent (%)
Express the result in % but write the number alone.

Solved entries (count: 2):
CC(=O)O[C@H]1C(=O)[C@@]2(C)[C@H]([C@H](OC(=O)c3ccccc3)[C@]3(O)C[C@H](OC(=O)[C@H](OC(=O)[C@@H](F)CCN(C)C)[C@@H](NC(=O)c4ccccc4)c4ccccc4)C(C)=C1C3(C)C)[C@]1(OC(C)=O)CO[C@@H]1C[C@@H]2O.Cl : 59.8
CC(=O)O[C@H]1C(=O)[C@@]2(C)[C@H]([C@H](OC(=O)c3ccccc3)[C@]3(O)C[C@H](OC(=O)[C@H](OC(=O)C(F)CCN(C)C)[C@@H](NC(=O)c4ccccc4)c4ccccc4)C(C)=C1C3(C)C)[C@]1(OC(C)=O)CO[C@@H]1C[C@@H]2O.CS(=O)(=O)O (stereo partly shown) : 63.7

Asked: Name the recorded dissociation percent of the item CC(=O)O[C@@]12CO[C@@H]1C[C@H](O)[C@@]1(C)C(=O)[C@H](O)C3=C(C)[C@@H](OC(=O)[C@H](OC(=O)C(F)CCN(C)C)[C@@H](NC(=O)OC(C)(C)C)c4ccccc4)C[C@@](O)([C@@H](OC(=O)c4ccccc4)[C@H]21)C3(C)C.Cl (stereo partly shown) in your answer.
Given back: 56.4

Asked: Find the measured dissociation percent of `CO[C@H]1C(=O)[C@]2(C)[C@@H](OC)C[C@H]3OC[C@@]3(OC(C)=O)[C@H]2[C@H](OC(=O)c2ccccc2)[C@]2(O)C[C@H](OC(=O)[C@H](OC(=O)[C@@H](F)CCN(C)C)[C@@H](NC(=O)OC(C)(C)C)c3ccccc3)C(C)=C1C2(C)C.Cl` and report it.
Given back: 47.6
